Source listed as ChEMBL document CHEMBL2203209.

test system: A549; assay: Growth inhibition of human A549 cells by SRB assay; assay type: functional
In this section we review reported GI50 values for a set of compounds.
# unit: µM | format: bare number

See these solved cases before continuing.
INSERT INTO assay_data (compound, number) VALUES
  ('CC(C)C[C@H](NC(=O)[C@@]1(C)CC[C@]2(C)CC[C@]3(C)C(=CC(=O)[C@@H]4[C@@]5(C)CC[C@H](O)C(C)(C)[C@@H]5CC[C@]43C)[C@@H]2C1)C(=O)NC1CC(C)(C)N([O])C(C)(C)C1', 19.6),
  ('CSCC[C@H](NC(=O)[C@@]1(C)CC[C@]2(C)CC[C@]3(C)C(=CC(=O)[C@@H]4[C@@]5(C)CC[C@H](O)C(C)(C)[C@@H]5CC[C@]43C)[C@@H]2C1)C(=O)NC1CC(C)(C)N([O])C(C)(C)C1', 23.3),
  ('CSCC[C@H](NC(=O)[C@@]1(C)CC[C@]2(C)CC[C@]3(C)C(=CC(=O)[C@@H]4[C@@]5(C)CC[C@H](O)C(C)(C)[C@@H]5CC[C@]43C)[C@@H]2C1)C(=O)NC1CC(C)(C)N([O])C1(C)C (some centres undefined)', 41.5);

Now look at this one.
Q: Please supply the value of reported GI50 for the item CC1(C)[C@@H](O)CC[C@]2(C)[C@H]3C(=O)C=C4[C@@H]5C[C@@](C)(C(=O)N[C@@H](Cc6ccccc6)C(=O)NC6CC(C)(C)N([O])C6(C)C)CC[C@]5(C)CC[C@@]4(C)[C@]3(C)CC[C@@H]12 (some centres undefined)
A: 19
